subject.of.test: T1, human trkC receptor immunoadhesin (trkC extracellular domain fused to immunoglobulin constant domains) (human, UniProt Q16288 32-429)
T1 construct: extracellular domain; not shown: immunoglobulin constant domains
assay.remarks: competitive displacement of labeled NT-3 from human trkC immunoadhesin, 96-well plate
Answer each item with its documented log10 IC50mut/IC50NT-3.
Hey, these are logged values: log10 of IC50mut/IC50NT-3, ratio being the unit before logging.

Guide cases for log10 IC50mut/IC50NT-3, answers given:
Consider NGF131 (ligand, also called NGF31) SSSHPIFHRGEFSVCDSVSLWVTDKTTAIDIKGKEVMVLGEVNINNSVFKQYFFETKCRDPNPVDSGCRGIDSKHWNSYCTTTQTYVKALTMDGKQAAWRFIRIDTACVCVLSRKAVRRA . Its measured log10 IC50mut/IC50NT-3 is 0.52

Short answer for NGF130 (ligand) SSSHPIFHRGEFSVCDSVSLWVTDKTTATDIKGKEVMVLGEVNINNSVFKQYFFETKCRDPNPVDSGCRGIDSKHWNSYCTTTQTYVKALTMDGKQAAWRFIRIDTACVCVLSRKAVRRA : log10 IC50mut/IC50NT-3 was 0.65

// NGF1234 (ligand) SSSHPIFHRGEFSVCDSESLWVTDKTTAIDIKGKEVMVLGEVNINNSVFKQYFFETKCRDPNPVDSGCRGIDSKHWNSQCKTTQTYVKALTMDGKQAAWRFIRIDTACVCVLSRKAVRRA : log10 IC50mut/IC50NT-3 value = 0.69

GET /value?item= NGFR3 (ligand) SSSHPIFHRGEFSVCDSESVWVTDKTTATDIKGKEVMVLGEVNINNSVFKQYFFETKCRDPNPVDSGCRGIDSKHWNSYCKTTQTFVKALTMDGKQAAWRFIRIDTACVCVLSRKAVRRA &field=log10 IC50mut/IC50NT-3 returns 1.57

Recorded result, NGFR2 (ligand) SSSHPIFHRGEFSVCDSVSLWVTDKTTATDIKGKEVMVLGEVNINNSVFKQYFFETKCRDPNPVDSGCRGIDSKHWNSYCKTTQTFVKALTMDGKQAAWRFIRIDTACVCVLSRKAVRRA , log10 IC50mut/IC50NT-3: 1.02

// switching to the query binder
// recorded log10 IC50mut/IC50NT-3 for NGF127 (ligand) SSSHPIFHRGEFSVCDSESLWVTDKTTATDIKGKEVMVLGEVNINNSVFKQYFFETKCRDPNPVDSGCRGIDSKHWNSQCKTTQTFVKALTMDGKQAAWRFIRIDTACVCVLSRKAVRRA : 1.52
